Origin of measurements: the supplement of paper PMC8728848

For each of the binders below, state its glycan array binding signal (z-score).
System: Fuc(a1-2)Gal(b1-4)[Fuc(a1-3)]GlcNAc(b1-3)Gal(b1-4)[Fuc(a1-3)]GlcNAc(b1-3)Gal(b1-4)[Fuc(a1-3)]GlcNAc
Assay Text: glycan array binding signal (z-score within array); higher = stronger binding
Applied Conditions: glycan notation: IUPAC condensed, linker removed
This is one part of a sample in which the strongest signals are shown more often than they occur.

Fill in: glycan array binding signal (z-score) of GNAT (Pseudomonas aeruginosa), Q9HV14 (protein) MQLSHRPAETGDLETVAGFPQDRDELFYCYPKAIWPFSVAQLAAAIAERRGSTVAVHDGQVLGFANFYQWQHGDFCALGNMMVAPAARGLGVARYLIGVMENLAREQYKARLMKISCFNANAAGLLLYTQLGYQPRAIAERHDPDGRRVALIQMDKPLEP is ___
-0.411

Fill in: glycan array binding signal (z-score) of PA-IL (Pseudomonas aeruginosa), Q05097 (protein) MAWKGEVLANNEAGQVTSIIYNPGDVITIVAAGWASYGPTQKWGPQGDREHPDQGLICHDAFCGALVMKIGNSGTIPVNTGLFRWVAPNNVQGAITLIYNDVPGTYGNNSGSFSVNIGKDQS is ___
-0.213

Fill in: glycan array binding signal (z-score) of LecB PA14 (Pseudomonas aeruginosa) (protein) MATQGVFTLPANTQFGVTAFANSAGTQTVNVQVNNETVATFTGQSTNNAIIGSKVLNSGGGGKVQILVSVNGRSSDLVSAQVILANELNFALVGSEDSTDNDYNDAVVVINWPLG is ___
7.29

Fill in: glycan array binding signal (z-score) of Pwp4 (Candida glabrata) (protein) MGSSHHHHHHSSGLVPRGSHMASVGNPITVSNVCSFPKNWHRTAGFRALTARLGIGIQSDSYKELLNYPGTFQLTTQQSSTTKPNFQISGLVGNIYGLTIVPSYLLVELTGYFVPPVSGEYTFSLEGSDDAAIIFIANPSTFKCGHVEDWPTAYDNDVTVTESIHATRTIYMIEGVAYPIRIAYYNGLSLGKLQASFTDPEGVKRVDWNGYIWRYDSCDTCSYV is ___
1.61

Fill in: glycan array binding signal (z-score) of Na-CTL-1 (Necator americanus) (protein) MQRSFLLLLVVLAGAWAVNTTIPLKLMGGFTPMKYQCVGRVSDIWADVLFLIESSDMITKSGFRQVIAFITATTKKMTIGQDEKQTRVGFITYGEEAKLIYDLDHWRSTEKLSDLVQKIPYVKSSGTNIAAAIALANKVFNSPTHRPNVPKVMVIVANGLKKGSQNPIPVATAFKDFGGIIITIEYTQYDNIQVPILKKIASEGYNIRSNDEDFSVRTLTNMLLQANCFCPDHYVPFRVNNPEFGCFVTAKIPSMWRDAAEMCRAVEEGKLVKVENEEKAAFIMKLVGPKKEAWIGLRYYGNKFQWTDGTKLNADDFNLWPEDIKELNGPHCVSMYQDQKDKKYYWRAGKCLEDMRYVCEVQPCSASNYCSEPVFMYRQKHRALLPAPPPPPN is ___
-0.334

Fill in: glycan array binding signal (z-score) of LecB PA7 (Pseudomonas aeruginosa) (protein) MATQGVFTLPANTRFGVTAFANSSATQTVKVLVNNETAATFTGQSTNNAVIGSQVLNSGGGGKVQIQVSVNGRSSDLVSAQVILANELNVALVGSEDSTDNDYNDAVVVINWPLG is ___
4.08

Fill in: glycan array binding signal (z-score) of Tp0751, 83732 (protein) MSYYHHHHHHLESTSLYKKAGFQHGHVPPRRIPPHDTFGALPTAALPSNARDTAAHPSDTADNTSGSSTTTDPRSHGNAPPAPVGGAAQTHTQPPVQTAMRIALWNRATHGEQGALQHLLAGLWIQTEISPNSGDIHPLLFFDREHAEITFSRASVQEIFLVDSAHTHRKTVSFLTRNTAISSIRRRLEVTFESHEVIHVRAVEDVARLKIGSTSMWDGQYTRYHAGPASAPSP is ___
0.013

Fill in: glycan array binding signal (z-score) of Aap lectin (Staphylococcus epidermidis) (protein) VNLNYSSPFMSLLSMPADSSSNNTKNTIDIPPTTVKGRDNYDFYGRVDIESNPTDLNATNLTRYNYGQPPGTTTAGAVQFKNQVSFDKDFDFNIRVANNRQSNTTGADGWGFMFSKKDGDDFLKNGGILREKGTPSAAGFRIDTGYYNNDPLDKIQKQAGQGYRGYGTFVKNDSQGNTSKVGSGTPSTDFLNYADNTTNDLDGKFHGQKLNNVNLKYNASNQTFTATYAGKTWTATLSELGLSPTDSYNFLVTSS is ___
-0.534

Fill in: glycan array binding signal (z-score) of RBMC2 (Vibrio cholerae) (protein) KISVRSGFAIDAIGASASTLVGGTGGNLNAAVNVKDIKAIDLTWGKYYWGGYHLLALDFRMSNGSVISMGSKNYAYSKQTERFTVPAGSRIKGIKAWTAGWLLDGVQFELA is ___
-0.273

Fill in: glycan array binding signal (z-score) of LecB LY19 (Pseudomonas aeruginosa) (protein) MATQGVFTLPANTQFGVTAFANSAGTQTVNVQVNNETVATFTGQSTNNGIIGSKVLNSGGGGKVQILVSVNGRSSDLVSAQVILANELNFALVGSEDSTDNDYNDAVVVINWPLG is ___
3.27

Fill in: glycan array binding signal (z-score) of CBP21 (Serratia marcescens), O83009 (protein) MNKTSRTLLSLGLLSAAMFGVSQQANAHGYVESPASRAYQCKLQLNTQCGSVQYEPQSVEGLKGFPQAGPADGHIASADKSTFFELDQQTPTRWNKLNLKTGPNSFTWKLTARHSTTSWRYFITKPNWDASQPLTRASFDLTPFCQFNDGGAIPAAQVTHQCNIPADRSGSHVILAVWDIADTANAFYQAIDVNLSK is ___
2.95

Fill in: glycan array binding signal (z-score) of FaeGac (Escherichia coli) (protein) WMTGDFNGSVDIGGSITADDYRQKWEWKVGTGLNGFGNVLNDLTNGGTKLTITVTGNKPILLGRTKEAFATPVTGGVDGIPHIAFTDYEGASVVLRNPDGETNKKGLAYFVLPMKNAEGTKVGSVKVNASYAGVLGRGGVTSADGELLSLFADGLSSIFYGGLPRGSELSAGSAAAERTKLFGSLSRNDILGQIQRVNANITSLVDVAGSYRENMEYTDGTVVSAAYALGIANGQTIEATFNQAVTTSTQWSAPLNVAITYY is ___
-0.161
